Test: Bioavailability was evaluated after oral administration of 5 mg/kg; range (8.7-15.8)
Assay type: ADME, organism-based
Conditions: eutheria, in vivo

inputSmiles: CC(=O)N1CCN(C(=O)/C=C/c2ccc(Sc3ccc4c(c3)OCCO4)c(Cl)c2)CC1
bioavailability: 12.4%

---

Experiment: Bioavailability was evaluated in rats
Format: ADME, organism-based
Settings: rat, in vivo

inputSmiles: CC(=O)N1CCN(C(=O)/C=C/c2ccc(Sc3ccccc3C(C)C)c([N+](=O)[O-])c2)CC1
bioavailability: 0%

---

Recorded Kd, one value per entry.
Molecular target: Integrin alpha-L (Homo sapiens)
Assay: Binding affinity to leukocyte function associated antigen 1 (LFA-1) I domain by NMR

compound: c1ccc2c(c1)OCCO2
Kd / mM: 10
--
compound: Cn1ccc2ccccc21
Kd / mM: 1.4
--
compound: c1ccc2nsnc2c1 [BENZO[1,2,5]THIADIAZOLE]
Kd / mM: 8

---

Test: Mean Cmax in rats after 5 mg/kg oral dose, range (0.17-0.20)
Assay type: ADME, organism-based
Design: dose 5 mg/kg, route oral
Conditions: rat, in vivo
observationType: Cmax (ng/mL)

inputSmiles: CC(=O)N1CCN(C(=O)/C=C/c2ccc(Sc3ccc4c(c3)OCCO4)c(Cl)c2)CC1
endpointValue: 190

---

Biological target: Intercellular adhesion molecule (ICAM-1), Integrin alpha-L/beta-2 (Homo sapiens, UniProt P05107+P20701)
Sequence (P20701 whole entry): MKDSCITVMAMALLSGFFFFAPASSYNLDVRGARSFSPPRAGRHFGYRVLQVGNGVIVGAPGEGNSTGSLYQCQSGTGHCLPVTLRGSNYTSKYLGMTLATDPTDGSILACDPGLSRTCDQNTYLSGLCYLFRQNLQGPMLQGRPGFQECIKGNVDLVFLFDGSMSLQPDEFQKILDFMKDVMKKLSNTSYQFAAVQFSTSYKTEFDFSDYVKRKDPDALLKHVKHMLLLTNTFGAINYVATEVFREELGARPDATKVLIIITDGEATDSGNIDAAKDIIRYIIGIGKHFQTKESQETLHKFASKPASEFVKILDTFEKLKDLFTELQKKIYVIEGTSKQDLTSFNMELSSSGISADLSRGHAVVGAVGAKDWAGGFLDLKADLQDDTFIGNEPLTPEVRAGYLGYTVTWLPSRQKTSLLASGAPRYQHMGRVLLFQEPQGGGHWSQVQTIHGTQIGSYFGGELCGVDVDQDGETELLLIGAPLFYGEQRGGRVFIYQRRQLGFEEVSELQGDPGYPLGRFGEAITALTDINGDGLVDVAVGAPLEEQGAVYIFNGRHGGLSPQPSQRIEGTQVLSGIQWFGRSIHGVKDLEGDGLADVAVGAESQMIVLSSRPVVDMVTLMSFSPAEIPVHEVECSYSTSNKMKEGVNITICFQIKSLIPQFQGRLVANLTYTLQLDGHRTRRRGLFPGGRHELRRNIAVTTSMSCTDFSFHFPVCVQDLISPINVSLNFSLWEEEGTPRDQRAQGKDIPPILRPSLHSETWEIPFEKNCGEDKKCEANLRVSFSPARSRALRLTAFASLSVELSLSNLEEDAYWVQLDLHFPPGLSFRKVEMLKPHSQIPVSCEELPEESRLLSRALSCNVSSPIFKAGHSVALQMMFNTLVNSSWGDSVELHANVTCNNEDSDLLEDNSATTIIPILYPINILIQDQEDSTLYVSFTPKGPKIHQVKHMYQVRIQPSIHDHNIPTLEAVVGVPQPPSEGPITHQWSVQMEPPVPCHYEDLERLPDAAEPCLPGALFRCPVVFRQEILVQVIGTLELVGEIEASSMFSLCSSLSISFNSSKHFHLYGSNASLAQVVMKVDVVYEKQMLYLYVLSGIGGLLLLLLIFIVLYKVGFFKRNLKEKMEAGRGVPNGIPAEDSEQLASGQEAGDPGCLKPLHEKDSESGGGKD
Sequence (P05362 whole entry, further chain): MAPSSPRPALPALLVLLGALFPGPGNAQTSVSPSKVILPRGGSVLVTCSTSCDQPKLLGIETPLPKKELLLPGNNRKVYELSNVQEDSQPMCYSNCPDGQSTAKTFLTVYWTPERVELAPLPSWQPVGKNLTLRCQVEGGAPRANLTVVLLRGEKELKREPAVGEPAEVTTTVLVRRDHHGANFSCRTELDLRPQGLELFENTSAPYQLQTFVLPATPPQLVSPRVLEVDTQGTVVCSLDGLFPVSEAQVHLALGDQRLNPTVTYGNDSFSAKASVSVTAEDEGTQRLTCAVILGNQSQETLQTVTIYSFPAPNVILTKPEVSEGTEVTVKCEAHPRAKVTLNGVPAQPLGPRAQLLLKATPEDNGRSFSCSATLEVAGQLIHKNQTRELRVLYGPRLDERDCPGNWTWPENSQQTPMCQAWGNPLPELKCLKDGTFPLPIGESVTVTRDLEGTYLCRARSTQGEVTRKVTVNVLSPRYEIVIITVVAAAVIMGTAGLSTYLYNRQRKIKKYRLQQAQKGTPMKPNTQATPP
Sequence (P05107 whole entry): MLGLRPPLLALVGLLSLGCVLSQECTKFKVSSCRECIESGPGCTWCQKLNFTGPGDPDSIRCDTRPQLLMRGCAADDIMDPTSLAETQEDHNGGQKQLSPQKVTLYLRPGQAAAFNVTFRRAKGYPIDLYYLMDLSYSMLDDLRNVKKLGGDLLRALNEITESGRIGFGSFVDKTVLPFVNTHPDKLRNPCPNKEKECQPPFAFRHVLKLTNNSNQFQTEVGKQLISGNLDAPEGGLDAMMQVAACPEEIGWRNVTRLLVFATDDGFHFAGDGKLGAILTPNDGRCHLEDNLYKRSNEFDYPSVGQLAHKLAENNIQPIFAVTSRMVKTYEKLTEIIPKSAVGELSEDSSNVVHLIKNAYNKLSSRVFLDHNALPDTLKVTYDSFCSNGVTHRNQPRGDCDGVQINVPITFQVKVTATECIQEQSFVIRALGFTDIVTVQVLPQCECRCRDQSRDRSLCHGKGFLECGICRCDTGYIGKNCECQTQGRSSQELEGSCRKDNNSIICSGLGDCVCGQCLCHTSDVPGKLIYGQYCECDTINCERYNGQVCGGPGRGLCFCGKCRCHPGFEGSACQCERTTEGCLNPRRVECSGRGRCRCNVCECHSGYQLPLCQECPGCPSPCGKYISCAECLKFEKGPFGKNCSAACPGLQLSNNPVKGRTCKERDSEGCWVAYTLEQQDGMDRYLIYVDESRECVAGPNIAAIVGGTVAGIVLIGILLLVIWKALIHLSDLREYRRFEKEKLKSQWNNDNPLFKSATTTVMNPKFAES
Assay: Inhibition of JY-8 cell adhesion via leukocyte function associated antigen 1 (LFA-1) to ICAM-1
Type: cell-based
Listed here are compounds together with their documented IC50.
observationType: IC50 (nM)

compound: CC(=O)N1CCN(C(=O)/C=C/c2ccc(Sc3ccc4c(c3)OCC(C(=O)O)O4)c(Cl)c2)CC1 (centres undefined)
unitsSymbol: nM
endpointValue: 1200
//
compound: CC(=O)N1CCN(C(=O)/C=C/c2ccc(Sc3ccc4c(c3)OCC(CO)O4)c(Cl)c2)CC1 (centres undefined)
unitsSymbol: nM
endpointValue: 20
//
compound: CC(=O)N1CCN(C(=O)/C=C/c2ccc(Sc3ccc4c(ccn4C)c3)c(Cl)c2)CC1
unitsSymbol: nM
endpointValue: 20
//
compound: CC(=O)N1CCN(C(=O)/C=C/c2ccc(Sc3ccc4c(c3)OCC(C(=O)N(C)C)O4)c(Cl)c2)CC1 (centres undefined)
unitsSymbol: nM
endpointValue: 510

---

Recorded solubility, one value per entry.
Assay: solubility was determined
Type: physicochemical

inputSmiles: CC(=O)N1CCN(C(=O)/C=C/c2ccc(Sc3ccc4c(c3)OCCO4)c(Cl)c2)CC1
unitsSymbol: µg/mL
solubility: 4.1
//
inputSmiles: CC(=O)N1CCN(C(=O)/C=C/c2ccc(Sc3ccc4[nH]ccc4c3)c(Cl)c2)CC1
unitsSymbol: µg/mL
solubility: 0.8
